I'd be grateful if you could share measured IC50, beta-arrestin reporter assay, Tango CXCR4-bla U2OS cells, 30 nM CXCL12 for these entries.
Target: human CXCR4 (cell-expressed) (human, UniProt P61073 1-352)
Sequence (P61073 whole entry): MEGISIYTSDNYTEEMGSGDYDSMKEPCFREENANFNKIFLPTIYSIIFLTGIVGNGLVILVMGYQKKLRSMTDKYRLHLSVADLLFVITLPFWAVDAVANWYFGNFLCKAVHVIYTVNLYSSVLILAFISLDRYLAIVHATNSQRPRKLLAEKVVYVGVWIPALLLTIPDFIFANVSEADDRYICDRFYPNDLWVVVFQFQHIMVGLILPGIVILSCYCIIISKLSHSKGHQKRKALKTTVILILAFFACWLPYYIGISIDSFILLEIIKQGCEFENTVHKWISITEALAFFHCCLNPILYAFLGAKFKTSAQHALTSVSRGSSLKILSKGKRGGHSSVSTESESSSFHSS
Test: cell-based or functional assay
Numbers only, in nM.

>>> val("CL-82556 (antibody, human IgG4 S228P, kappa, V domains shown, Tested in human IgG4-PE format) VH: QVQLVESGGGVVQPGRSLRLSCAASGFTFYSYGMHWVRQAPGKGLEWVAVIWYGGTNKYYADSVKGRFTISRDNSKNTLYLQMNSLTAEDTAVYYCARGQLERRRGGLNIWGQGTMVTVSS VL: DIQMTQSPSSLSASVGDRVTITCRASQGVRDDLGWYQQKPGKAPKRLIYAASNLQSGVPSRFSGSGSGTEFTLTIGSLQPEDFATYYCLQHNSYPFTFGPGTKVDIKR")
0.14

For each of the items listed, what is its IC50, beta-arrestin reporter assay, Tango CXCR4-bla U2OS cells, 30 nM CXCL12?
1. CL-82562 (antibody, human IgG4 S228P, kappa, V domains shown, Tested in human IgG4-PE format) VH: QVQLVESGGGVVQPGRSLRLSCTASGFTFSNYAMHWVRQAPGKGLEWVAVISYDGSNKYCADSVKGRFTISRDNSKNTLYLQMNSLRAEDTAVYYCARGPLARRHYYYYGMDVWGQGTTVTVSS VL: DIQMTQSPSSLSASVGDRVTITCRASQGIRNDLGWYQQKPGKAPKRLIYGASSLQSGVPSRFSGSGSGTEFTLTISSLQPEDFATYYCLQHNSYPRTFGQGTKVEIKR
2. CL-148712 (antibody, human IgG4 S228P, kappa, V domains shown) VH: EVQLVESGGDLVQPGGSLRLSCAASGFTFYSYAMNWVRQAPGKGLKWVSGISGSGDITYYADSVKGRFTISRDNSKNTLYLQMHSLRAEDTAVYYCAKGQLERRYYKYYGMDVWGQGTTVTVSS VL: DIQMTQSPSSLSASVGDRVTITCRANQGIRNDLGWYQQKPGKAPKRLIYGASSLKSGVPSRFSGSGSGTEFTLTISSLQPEDFATYYCLQQNSYPLTFGGGTKVEIKR
3. CL-148729 (antibody, human IgG4 S228P, lambda, V domains shown, Tested in human IgG4-PE format) VH: AVQLVESGGGLVQPGGSLKLSCAASGFTFSGSTMHWVRQASGRGLEWVGRIRSKADSYATAYSASVKGRFTISRDDSKKMAYLQMNSLKTEDMAVYYCTRSGDYWGQGTLVTVSS VL: QSVLTQPPSVSAAPGQKVTISCSGSSSNIGKNYVAWYQQLPGTAPKLLIYDTNKRPSGIPDRFSGSKSGTSATLDITGLQTGDEADYYCGTWDISLSVGWLFGGGTKVTVLG
4. CL-82571 (antibody, human IgG4 S228P, kappa, V domains shown, Tested in human IgG4-PE format) VH: EVQLVESGGGLVQPGGSLKLSCAASGFTFSGSAMHWVRQASGKGLEWVGRIRSKANKYATAYAASVKGRFTISRDDSKNTAYVQMKSLKTEDTAVYYCTWELSNYDILTGFYYGMDVWGQGTTVTVSS VL: DIQMTQSPSTLSASVGDRVTITCRASQSISNWLAWYQQKPGKAPKVLIYKASSLESGVPSRFSGSGSGTEFTLTISSLQPDDFATYYCQQYNSFSWTFGQGTKVEIKR
5. CL-82458 (antibody, human IgG4 S228P, kappa, V domains shown, Tested in human IgG4-PE format; also called CL-82458 (IgG4-PE format)) VH: EVQLVESGGDLVQPGGSLRLSCAASGFTFYSYAMNWVRQAPGKGLKWVSGISGSGDITYYADSVKGRFTISRDNSKNTLYLQMHSLRPEDTAIYYCAKGQLERRYYKYYGMDVWGQGTTVTVSS VL: DIQMTQSPSSLSASVGDRVTITCRANQGIRNDLGWYQQKPGKAPKRLIYGASSLKSGVPSRFSGSGSGTEFTLTISSLQPEDFATYYCLQQNSYPLTFGGGTKVEIKR

Given back:
1: 0.52; 2: 0.19; 3: 0.11; 4: 1; 5: 0.31
